Ref: ChEMBL document CHEMBL1124177

For reference, Ki measured on Glutamate receptor ionotropic, NMDA 2C (Rattus norvegicus):
Numbers only, in nM.

c1ccc(C2(N3CCCCC3)CCCCC2)cc1 :: 91

Provide each entry's Ki from the list below.
1. c1ccc([C@H](C2CC3CC3C2)N2CCCCC2)cc1 (stereo partly drawn)
2. c1ccc([C@@H](C2CC3CC3C2)N2CCCCC2)cc1 (stereo partly drawn)

1: 630; 2: 680
